Catalogue of growth at 100 µM values
Test system: 786-0
Test: Growth inhibition of human 786-0 cells assessed as cell growth at 10^-4 M incubated for 48 hrs by sulforhodamine B assay
Format: functional
Conditions: 786-0, 48 h, read-out: Activity
measurement-type: growth at 100 µM (%)

• c1ccc2[nH]c(-c3ccc(Nc4nc(N5CCCCC5)nc(N5CCOCC5)n4)cc3)nc2c1 = -87
• Clc1ccc(-c2nc(Nc3ccc(-c4nc5ccccc5[nH]4)cc3)nc(N3CCOCC3)n2)cc1 = -21
• c1ccc(-c2nc(Nc3ccc(-c4nc5ccccc5[nH]4)cc3)nc(N3CCOCC3)n2)cc1 = -71
• Fc1ccc(-c2nc(Nc3ccc(-c4nc5ccccc5[nH]4)cc3)nc(N3CCOCC3)n2)cc1 = -68

###

System: U-251
Assay: Growth inhibition of human U251 cells incubated for 48 hrs by sulforhodamine B assay
Assay type: functional
Details: U-251, 48 h, read-out: pGI50 (converted)
measurement-type: GI50 (nM)

* Fc1ccc(-c2nc(Nc3ccc(-c4nc5ccccc5[nH]4)cc3)nc(N3CCOCC3)n2)cc1 | 2040
* Clc1ccc(-c2nc(Nc3ccc(-c4nc5ccccc5[nH]4)cc3)nc(N3CCOCC3)n2)cc1 | 214
* c1ccc2[nH]c(-c3ccc(Nc4nc(N5CCCCC5)nc(N5CCOCC5)n4)cc3)nc2c1 | 2190
* c1ccc(-c2nc(Nc3ccc(-c4nc5ccccc5[nH]4)cc3)nc(N3CCOCC3)n2)cc1 | 537

###

Tested on: MDA-MB-231
Assay: Growth inhibition of human MDA-MB-231 cells incubated for 48 hrs by sulforhodamine B assay
Assay type: functional
Details: MDA-MB-231, 48 h, read-out: TGI
measurement-type: TGI (µM)

• c1ccc2[nH]c(-c3ccc(Nc4nc(N5CCCCC5)nc(N5CCOCC5)n4)cc3)nc2c1 = 7.52
• Fc1ccc(-c2nc(Nc3ccc(-c4nc5ccccc5[nH]4)cc3)nc(N3CCOCC3)n2)cc1 = 4.76
• c1ccc(-c2nc(Nc3ccc(-c4nc5ccccc5[nH]4)cc3)nc(N3CCOCC3)n2)cc1 = 3.48
• Clc1ccc(-c2nc(Nc3ccc(-c4nc5ccccc5[nH]4)cc3)nc(N3CCOCC3)n2)cc1 = 0.422

###

System: 786-0
Test: Growth inhibition of human 786-0 cells incubated for 48 hrs by sulforhodamine B assay
Format: functional
Details: 786-0, 48 h, read-out: GI50
Catalogue of GI50 values
measurement-type: GI50 (nM)

- c1ccc2[nH]c(-c3ccc(Nc4nc(N5CCCCC5)nc(N5CCOCC5)n4)cc3)nc2c1: 1540
- Fc1ccc(-c2nc(Nc3ccc(-c4nc5ccccc5[nH]4)cc3)nc(N3CCOCC3)n2)cc1: 1440
- Clc1ccc(-c2nc(Nc3ccc(-c4nc5ccccc5[nH]4)cc3)nc(N3CCOCC3)n2)cc1: 177
- c1ccc(-c2nc(Nc3ccc(-c4nc5ccccc5[nH]4)cc3)nc(N3CCOCC3)n2)cc1: 257

###

Assay: Growth inhibition of human SF268 cells assessed as cell growth at 10^-4 M incubated for 48 hrs by sulforhodamine B assay
Type: functional
Details: SF-268, 48 h, read-out: Activity
measurement-type: growth at 100 µM (%)

• Fc1ccc(-c2nc(Nc3ccc(-c4nc5ccccc5[nH]4)cc3)nc(N3CCOCC3)n2)cc1 = -4
• Clc1ccc(-c2nc(Nc3ccc(-c4nc5ccccc5[nH]4)cc3)nc(N3CCOCC3)n2)cc1 = -24
• c1ccc2[nH]c(-c3ccc(Nc4nc(N5CCCCC5)nc(N5CCOCC5)n4)cc3)nc2c1 = -11
• c1ccc(-c2nc(Nc3ccc(-c4nc5ccccc5[nH]4)cc3)nc(N3CCOCC3)n2)cc1 = -78
